test system: PC-3 prostate; experiment: NCI tumour cell line growth inhibition, 48 h
Listing: TGI of selected compounds

[
  {
    "compound": "COc1ccc(C2=C(N)c3cc(OC)ccc3C2=O)cc1",
    "target.or.test.system": "PC-3 prostate",
    "TGI": "> 100 µM"
  }
]

Asked: For the compound shown here, `O=C(Nc1ccc(I)cc1F)c1cc(F)ccc1O` , give the reported TGI.
Given back: 6.4 µM

Asked: For the compound shown here, `O=C(O)CNCc1c2ccccc2nc2ccccc12` , give the reported TGI.
Given back: > 100 µM

Asked: For the compound shown here, `Cc1cnc2[nH]c(-c3sccc3C)cc(=O)c2c1` , give the reported TGI.
Given back: > 100 µM

Asked: For the compound shown here, COc1cc2c3c4[n+](cc2c(OC)c1OC)CCC4CCC3 (centres undefined) , give the reported TGI.
Given back: > 100 µM

Asked: For the compound shown here, Nc1nc(Cl)cc(NCC2CC(O)(CO)C2)n1 (centres undefined) , give the reported TGI.
Given back: > 100 µM

Asked: For the compound shown here, CC1CC/C(=C\c2ccc(F)cc2)C2=C1C(c1ccc(F)cc1)NC(=S)N2 (centres undefined) , give the reported TGI.
Given back: > 100 µM

Asked: For the compound shown here, `CCOC(=O)c1sc2[n+](c1C)C(=O)/C(=C/c1ccccc1Cl)S2` , give the reported TGI.
Given back: > 85.6 µM

Asked: For the compound shown here, `Cc1cccc(Cc2cnc(NC(=O)/C=C/c3ccco3)s2)c1` , give the reported TGI.
Given back: > 100 µM

###

tested on: SN12C renal; experiment: NCI tumour cell line growth inhibition, 48 h
measurement.label: TGI (µM)
# value in µM; strip the unit string

[
  {
    "compound": "Clc1ccc(C2=NNC(c3cccc(Cl)c3)C2)cc1 (centres undefined)",
    "observed.result": 53.2
  }
]

Next:
Asked: What TGI appears in the records for this compound with SN12C renal? `COc1ccc(Nc2ccnc3cc(Cl)ccc23)cc1CN(CCCl)CCCl`
Given back: 6

###

system: PC-3 prostate; assay: NCI tumour cell line growth inhibition, 48 h
Listing: TGI of selected compounds

[
  {
    "compound": "COC1OC2COC(c3ccccc3)OC2C(OC(=S)c2ccccc2)C1O (stereo not drawn)",
    "measurement.label": "TGI",
    "observed.result": "74.9 µM"
  }
]

Next:
Asked: What TGI appears in the records for this compound with PC-3 prostate? `CC(=O)O[C@H]1CC[C@]2(C=O)[C@H]3CC[C@]4(C)[C@@H](C5=CC(=O)OC5)CC[C@]4(O)[C@@H]3CC[C@]2(O)C1`
Given back: 1.38 µM

###

tested on: SW-620 colon; experiment: NCI tumour cell line growth inhibition, 48 h
measurement.label: TGI

Asked: For the molecule shown here, `CN(C)CC(C)(C)C(=O)/C=C/c1ccccc1` , give the reported TGI.
Given back: 31.1 µM

Asked: For the molecule shown here, CC1[C@@H]2C[C@@H]3O[C@@]34[C@H]3CCC5Cc6nc7c(nc6C[C@@]5(C)C3(O)CC(=O)[C@@]24CO[C@]12OC(C)(C)CC2O)CC1CC[C@@H]2C3=C[C@H]4O[C@@]5(O[C@@](C)(CO)C[C@@H]5O)C(C)[C@@]4(O)[C@]3(C)[C@@H](O)CC2[C@]1(C)C7 (stereo not given in full) , give the reported TGI.
Given back: 0.49 µM

Asked: For the molecule shown here, `Oc1[nH]c2ccccc2c1N=NC(=S)NCc1ccccn1` , give the reported TGI.
Given back: 22.3 µM

Asked: For the molecule shown here, `C/C(=N/OCCC(=O)O)C1CC1` , give the reported TGI.
Given back: > 100 µM

Asked: For the molecule shown here, COc1cccc2c1C(=O)c1c(O)c3c(c(O)c1C2=O)C[C@@](O)(C(=O)CO)CC3OC1CC(NCCCCC(OC(C)=O)OC(C)=O)C(O)C(C)O1 (stereo not given in full) , give the reported TGI.
Given back: > 1 µM

###

tested on: HT29 colon; experiment: NCI tumour cell line growth inhibition, 48 h
Listing: TGI of selected compounds

These recorded examples may help you get a feel for the data.
[
  {
    "compound": "N#CC(N)(C(=O)C(=O)NCCCNC(=O)C(=O)C(N)(C#N)c1ccc(Cl)cc1)c1ccc(Cl)cc1 (stereo unspecified)",
    "TGI": "> 100 µM"
  },
  {
    "compound": "Oc1[nH]c2ccccc2c1N=NC(=S)NCc1ccccn1",
    "TGI": "> 43 µM"
  },
  {
    "compound": "CCOC(=O)c1sc2[n+](c1C)C(=O)/C(=C/c1ccccc1Cl)S2",
    "TGI": "28.9 µM"
  },
  {
    "compound": "O=C1CSC(c2cc3cc(Br)ccc3nc2Cl)N1c1ccc(F)c(Cl)c1 (stereo unspecified)",
    "TGI": "> 50 µM"
  },
  {
    "compound": "Cn1c(-c2cccs2)cc(-c2ccsc2)c1-c1ccsc1",
    "TGI": "> 100 µM"
  },
  {
    "compound": "COc1ccc(C2C3=C(COC3=O)N(CCO)c3cc4c(cc32)CCC4)cc1OC (stereo unspecified)",
    "TGI": "> 10.3 µM"
  },
  {
    "compound": "Cc1cc(S(=O)(=O)Nc2n[nH]c(N)n2)c(S)cc1Cl",
    "TGI": "> 10 µM"
  },
  {
    "compound": "COc1cccc(C2N3CCCCC3[C@@H]3c4[nH]c5ccccc5c4CCN23)c1OC (stereo partly specified)",
    "TGI": "25.5 µM"
  },
  {
    "compound": "CC(=O)OC1COC(n2c(N)c(C#N)c(-c3ccccc3)c(C#N)c2=S)C(OC(C)=O)C1OC(C)=O (stereo unspecified)",
    "TGI": "> 100 µM"
  },
  {
    "compound": "CCN(CC)c1ccc(/C=C2/NC(=O)NC2=O)cc1",
    "TGI": "> 100 µM"
  }
]

Asked: For the compound shown here, `COc1cc(C)c(S(=O)(=O)N(CCCN)OCCCN)c(C)c1C` , give the reported TGI.
Given back: > 100 µM

Asked: For the compound shown here, `C/C(=C\COc1ccc2ccc(=O)oc2c1)CCC(=O)C(C)(C)O` , give the reported TGI.
Given back: 52.7 µM

Asked: For the compound shown here, `O=C(Nc1ccccc1C(=O)O)C(=Cc1ccccc1O)NC(=O)c1ccccc1` , give the reported TGI.
Given back: > 100 µM

Asked: For the compound shown here, `CCc1cc2c(c3[nH]ccc13)[C@@H](C)C[C@H]2C` , give the reported TGI.
Given back: 43.8 µM

Asked: For the compound shown here, CCC1C(=O)OCc2c1cc1n(c2=O)Cc2ccccc2-1 (stereo unspecified) , give the reported TGI.
Given back: > 100 µM

Asked: For the compound shown here, `O=C(N(C1=CCCC1)N(c1ccccc1)c1ccccc1)C(F)(F)F` , give the reported TGI.
Given back: 42.6 µM

Asked: For the compound shown here, `Cc1cccc2c1C(=O)/C(=C/c1ccccc1C(=O)O)C2` , give the reported TGI.
Given back: > 100 µM

Asked: For the compound shown here, `O=C(N/N=C\c1cc(Br)cc(Br)c1O)N/N=C/c1cc(Br)cc(Br)c1O` , give the reported TGI.
Given back: 18.3 µM

Asked: For the compound shown here, `CN(C)CCSc1nccc(-c2ccc(-c3ccnc(SCCN(C)C)n3)s2)n1` , give the reported TGI.
Given back: 10.3 µM

Asked: For the compound shown here, CC1C/C(=C\c2ccc(O)c(O)c2)C(=O)/C(=C/c2ccc(O)c(O)c2)C1 (stereo unspecified) , give the reported TGI.
Given back: 34.2 µM

Asked: For the compound shown here, COc1cc2c3c4[n+](cc2c(OC)c1OC)CCC4CCC3 (stereo unspecified) , give the reported TGI.
Given back: > 100 µM

###

system: MOLT-4 leukemia; experiment: NCI tumour cell line growth inhibition, 48 h
Listing: TGI of selected compounds

These recorded examples may help you get a feel for the data.
[
  {
    "compound": "c1ccc2c(c1)[C@@H]1O[C@@H]1[C@@]13O[C@@]21[C@H]1O[C@H]1c1ccccc13",
    "TGI": "> 100 µM"
  },
  {
    "compound": "CC1CC(=O)CC[C@@H]1OCc1ccccc1 (stereo partly drawn)",
    "TGI": "> 100 µM"
  }
]

Next:
Asked: For the compound shown here, `COc1ccc(CN[C@H]2CCc3cc(OC)c(OC)c(OC)c3-c3ccc(SC)c(=O)cc32)c(OC)c1OC` , give the reported TGI.
Given back: > 100 µM

###

Listing: TGI of selected compounds
system: NCI-H226 lung; experiment: NCI tumour cell line growth inhibition, 48 h

[
  {
    "compound": "O=c1cc(-c2ccccc2)[nH]c2c(F)ccc(F)c12",
    "target.or.test.system": "NCI-H226 lung",
    "measurement.label": "TGI",
    "observed.result": "> 100 µM"
  }
]

Asked: For the compound shown here, COC1OC2COC(c3ccccc3)OC2C(OC(=S)c2ccccc2)C1O (stereo unspecified) , give the reported TGI.
Given back: > 100 µM

Asked: For the compound shown here, `C[C@@H]1CC[C@H]2C(CN(C)CC3=C(C(F)(F)F)O[C@@H]4O[C@@]5(C)CC[C@H]6[C@H](C)CC[C@@H]3[C@@]46OO5)=C(C(F)(F)F)O[C@@H]3O[C@@]4(C)CC[C@@H]1[C@]32OO4` , give the reported TGI.
Given back: > 64.9 µM

Asked: For the compound shown here, `O=C(O)CSc1nnc(COc2ccccc2)n1-c1ccccc1` , give the reported TGI.
Given back: > 100 µM

Asked: For the compound shown here, COc1cc2c3c4[n+](cc2c(OC)c1OC)CCC4CCC3 (stereo unspecified) , give the reported TGI.
Given back: > 100 µM

Asked: For the compound shown here, `COc1cc2ccc(C(=O)O)cc2cc1OC` , give the reported TGI.
Given back: > 100 µM
